# pKd annotations
Biological target: T1, recombinant human HER2 extracellular domain protein (human, UniProt P04626 23-652)
T1 construct: range 23-652; Range is printed for the immunogen/panning protein; also called ErbB2; recombinant HER2 protein
Experiment: BLI, Protein A capture
Please express pKd as -log10 of the molar concentration.

binder	pKd
2126-Hu-L14 (antibody, IgG1, V domains shown, IgG1/Cκ) VH: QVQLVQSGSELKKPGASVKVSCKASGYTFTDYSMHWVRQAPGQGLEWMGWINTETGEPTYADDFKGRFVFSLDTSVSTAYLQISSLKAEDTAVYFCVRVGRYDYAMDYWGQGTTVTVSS VL: DIQMTQSPSSLSASVGDRVTITCKASQDVYTAVAWYQQKPGKAPKLLINSASYRATGVPSRFSGSGSGTDFTLTISSLQPEDFATYYCQQHYSTPPTFGGGTKVEIK	8.19

Attention now shifts to the item below.
-- ask What pKd value was documented for this binder, 2126-Hu-H30 (antibody, IgG1, name in Kabat numbering, V domains shown, IgG1/Cκ) VH: QVQLVQSGSELKKPGASVKVSCKASGYTFTDYSMHWVRQAPGQGLEWMGWINTETGNPTYADDFKGRFVFSLDTSVSTAYLQISSLKAEDTAVYFCVRVGRYDYAMDYWGQGTTVTVSS VL: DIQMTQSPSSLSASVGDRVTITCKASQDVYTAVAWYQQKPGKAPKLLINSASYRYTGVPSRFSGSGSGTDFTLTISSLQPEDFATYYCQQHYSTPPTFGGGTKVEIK ?
-- reply 7.88
